This collection of values is drawn from patent US20230257396A1.

- system_tested: kinases (Homo sapiens, UniProt P07949, V804M)
- Construct: purchased Eurofins/DiscoveRx; host or cells: E. coli BL21-derived host (T7 phage display) for most kinases; HEK-293 for the rest
- Sequence (P07949 29-1114 V804M): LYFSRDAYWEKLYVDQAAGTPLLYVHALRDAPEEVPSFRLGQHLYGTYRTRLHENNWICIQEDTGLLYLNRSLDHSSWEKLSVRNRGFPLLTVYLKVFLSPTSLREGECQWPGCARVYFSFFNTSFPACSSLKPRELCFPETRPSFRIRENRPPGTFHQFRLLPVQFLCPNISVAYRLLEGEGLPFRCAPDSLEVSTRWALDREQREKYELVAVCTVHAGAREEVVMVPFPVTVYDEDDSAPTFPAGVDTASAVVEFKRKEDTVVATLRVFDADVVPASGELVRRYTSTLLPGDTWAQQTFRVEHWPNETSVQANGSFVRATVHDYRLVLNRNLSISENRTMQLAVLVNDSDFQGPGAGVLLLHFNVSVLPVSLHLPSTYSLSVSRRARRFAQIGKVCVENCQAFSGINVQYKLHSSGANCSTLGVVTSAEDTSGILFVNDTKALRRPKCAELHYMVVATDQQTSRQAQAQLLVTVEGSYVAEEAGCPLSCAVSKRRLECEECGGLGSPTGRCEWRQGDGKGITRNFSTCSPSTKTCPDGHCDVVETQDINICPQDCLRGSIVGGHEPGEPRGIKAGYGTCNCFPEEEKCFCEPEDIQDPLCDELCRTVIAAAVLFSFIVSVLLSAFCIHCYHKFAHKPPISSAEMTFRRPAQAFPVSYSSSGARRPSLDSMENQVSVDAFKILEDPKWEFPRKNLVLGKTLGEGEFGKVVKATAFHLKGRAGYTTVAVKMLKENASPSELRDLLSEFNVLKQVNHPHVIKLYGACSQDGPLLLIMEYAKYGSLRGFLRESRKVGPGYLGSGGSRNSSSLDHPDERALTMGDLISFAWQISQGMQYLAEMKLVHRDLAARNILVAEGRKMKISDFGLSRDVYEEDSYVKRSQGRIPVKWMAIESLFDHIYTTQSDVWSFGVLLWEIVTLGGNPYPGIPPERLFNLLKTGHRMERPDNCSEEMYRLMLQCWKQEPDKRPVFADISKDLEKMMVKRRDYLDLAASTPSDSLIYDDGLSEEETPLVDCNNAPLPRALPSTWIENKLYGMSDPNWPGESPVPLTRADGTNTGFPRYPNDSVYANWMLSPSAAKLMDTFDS
- test: KINOMEscan kinase binding assay (Eurofins/DiscoveRx), % Ctrl
- study_conditions: 1 μM; RET(V804M)
- Protocol: Kinase binding assays were performed at Eurofins/DiscoveRx using the general KINOMEscan Protocol (Fabian, M. A. et al., “A small molecule-kinase interaction map for clinical kinase inhibitors,” Nat. Biotechnol. 2005, 23(3):329-36). For most assays, kinase-tagged T7 phage strains were prepared in an E. coli host derived from the BL21 strain. […] The kinase concentration in the eluates was measured by qPCR. […]
property_measured: % Ctrl, RET(V804M) (% Ctrl)
Numbers only, in % Ctrl.

Illustrative cases are given below, each with its answer.
Cc1cc2c([nH]1)/C=C1\C(=O)Nc3ccc(cc31)-c1cnn(C)c1COCCN(C)C2=O [Ex. 124]; 0.05
Cc1cc2c([nH]1)/C=C1\C(=O)Nc3ccc(cc31)OCCOCCN(C)C2=O [Ex.91]; 4
Cc1cc2c([nH]1)/C=C1\C(=O)Nc3cc(Cl)c(cc31)OCCO[C@@H](C(=O)N[C@@H]1CCNC1)CN(C)C2=O [Ex. 136]; 64

Moving on to the next molecule.
Could you share which % Ctrl, RET(V804M) value was measured for Cc1cc2c([nH]1)/C=C1\C(=O)Nc3ccc(cc31)OCCOCCNC2=O [Ex. 129] ? 94

---

- system_tested: kinases (Homo sapiens, UniProt P36888, D835H)
- Construct: purchased Eurofins/DiscoveRx; host or cells: E. coli BL21-derived host (T7 phage display) for most kinases; HEK-293 for the rest
- Sequence (P36888 27-993 D835H): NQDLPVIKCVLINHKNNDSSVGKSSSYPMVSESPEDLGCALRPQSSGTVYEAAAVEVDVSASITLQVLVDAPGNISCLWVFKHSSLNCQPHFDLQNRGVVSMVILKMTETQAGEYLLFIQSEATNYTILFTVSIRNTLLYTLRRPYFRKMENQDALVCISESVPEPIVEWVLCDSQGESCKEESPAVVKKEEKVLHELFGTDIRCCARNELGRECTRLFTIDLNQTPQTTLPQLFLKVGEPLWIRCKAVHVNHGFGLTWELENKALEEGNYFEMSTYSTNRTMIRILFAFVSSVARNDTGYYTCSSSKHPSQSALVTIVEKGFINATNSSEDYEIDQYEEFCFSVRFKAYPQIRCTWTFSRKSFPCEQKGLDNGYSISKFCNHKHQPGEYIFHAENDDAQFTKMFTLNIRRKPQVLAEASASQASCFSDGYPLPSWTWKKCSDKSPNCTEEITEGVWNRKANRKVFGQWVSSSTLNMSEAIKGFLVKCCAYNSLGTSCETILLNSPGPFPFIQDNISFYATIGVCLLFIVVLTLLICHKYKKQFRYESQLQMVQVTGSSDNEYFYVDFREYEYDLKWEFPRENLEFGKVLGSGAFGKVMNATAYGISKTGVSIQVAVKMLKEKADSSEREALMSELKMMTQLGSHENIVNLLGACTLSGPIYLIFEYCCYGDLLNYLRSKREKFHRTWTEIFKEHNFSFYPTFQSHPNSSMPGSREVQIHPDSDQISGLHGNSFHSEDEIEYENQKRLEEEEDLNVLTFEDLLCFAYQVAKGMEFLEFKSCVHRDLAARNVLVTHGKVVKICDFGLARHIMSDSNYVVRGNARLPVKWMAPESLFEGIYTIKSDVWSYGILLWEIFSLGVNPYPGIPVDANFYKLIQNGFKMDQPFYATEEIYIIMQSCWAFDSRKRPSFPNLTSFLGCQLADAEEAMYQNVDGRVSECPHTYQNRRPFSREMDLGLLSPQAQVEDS
- test: KINOMEscan kinase binding assay (Eurofins/DiscoveRx), % Ctrl
- study_conditions: 1 μM; FLT3(D835H)
property_measured: % Ctrl, FLT3(D835H) (% Ctrl)
Give bare numbers, in % Ctrl.

Some molecules with recorded % Ctrl, FLT3(D835H):
Cc1cc2c([nH]1)/C=C1\C(=O)Nc3cc(Cl)c(cc31)OCCO[C@@H](C(=O)NC1CNC1)CN(C)C2=O [Ex. 133]; 39
Cc1cc2c([nH]1)/C=C1\C(=O)Nc3cc(Cl)c(cc31)OCCOCCN(C)C2=O [Ex. 131]; 0
Cc1cc2c([nH]1)/C=C1\C(=O)Nc3ccc(cc31)OCCOCCN(C)C2=O [Ex.91]; 1.2

Okay, next one:
Item Cc1cc2c([nH]1)/C=C1\C(=O)Nc3cnc(cc31)-c1cnn(C)c1COCCNC2=O [Ex.123] has what recorded % Ctrl, FLT3(D835H)? 88

---

For each of the compounds below, state its % Ctrl, KIT(V559D).
- system_tested: kinases (Homo sapiens, UniProt P10721, V559D)
- Construct: purchased Eurofins/DiscoveRx; host or cells: E. coli BL21-derived host (T7 phage display) for most kinases; HEK-293 for the rest
- Sequence (P10721 26-976 V559D): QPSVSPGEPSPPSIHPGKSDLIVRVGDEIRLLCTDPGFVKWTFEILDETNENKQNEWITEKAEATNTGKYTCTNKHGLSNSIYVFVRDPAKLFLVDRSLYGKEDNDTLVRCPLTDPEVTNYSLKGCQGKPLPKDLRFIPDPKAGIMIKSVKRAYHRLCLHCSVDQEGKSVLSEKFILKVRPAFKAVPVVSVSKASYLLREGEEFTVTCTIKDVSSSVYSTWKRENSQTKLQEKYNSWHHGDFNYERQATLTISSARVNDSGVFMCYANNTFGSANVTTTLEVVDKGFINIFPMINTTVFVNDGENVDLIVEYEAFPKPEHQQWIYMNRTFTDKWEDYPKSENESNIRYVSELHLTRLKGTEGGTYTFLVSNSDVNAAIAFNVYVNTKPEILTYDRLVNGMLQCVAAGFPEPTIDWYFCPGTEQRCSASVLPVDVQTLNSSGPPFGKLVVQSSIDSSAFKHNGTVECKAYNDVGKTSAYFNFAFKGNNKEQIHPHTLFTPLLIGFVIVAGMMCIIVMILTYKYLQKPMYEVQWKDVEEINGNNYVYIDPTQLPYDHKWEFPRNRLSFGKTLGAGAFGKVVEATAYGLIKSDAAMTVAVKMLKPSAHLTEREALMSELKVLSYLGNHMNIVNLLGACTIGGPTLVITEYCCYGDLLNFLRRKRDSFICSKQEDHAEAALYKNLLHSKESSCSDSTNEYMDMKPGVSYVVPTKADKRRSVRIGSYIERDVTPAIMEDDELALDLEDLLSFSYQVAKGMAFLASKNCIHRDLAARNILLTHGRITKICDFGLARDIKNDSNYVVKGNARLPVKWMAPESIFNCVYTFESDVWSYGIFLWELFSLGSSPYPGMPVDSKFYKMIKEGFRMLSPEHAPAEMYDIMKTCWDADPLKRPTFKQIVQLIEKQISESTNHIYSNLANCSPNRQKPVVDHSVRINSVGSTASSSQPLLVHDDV
- test: KINOMEscan kinase binding assay (Eurofins/DiscoveRx), % Ctrl
- study_conditions: 1 μM; KIT(V559D)
Could you give the number and then its unit, please?

Please give % Ctrl, KIT(V559D), item by item, for the list that follows.
1. Cc1cc2c([nH]1)/C=C1\C(=O)Nc3ccc(cc31)-c1c(C)n[nH]c1CNCCN(C)C2=O
2. Cc1cc2c([nH]1)/C=C1\C(=O)Nc3ccc(cc31)-c1ccnn1CCNCCNC2=O
3. CNC(=O)[C@H]1CN(C)C(=O)c2cc(C)[nH]c2/C=C2\C(=O)Nc3cc(Cl)c(cc32)OCCO1
4. Cc1cc2c([nH]1)/C=C1\C(=O)Nc3ccc(cc31)OCCOCCNC2=O
5. Cc1cc2c([nH]1)/C=C1\C(=O)Nc3cc(Cl)c(cc31)OCCO[C@@H](C(=O)NC1CNC1)CN(C)C2=O
6. Cc1cc2c([nH]1)/C=C1\C(=O)Nc3ccc(cc31)-c1cnn(C)c1CNCCN(C)C2=O
7. Cc1cc2c([nH]1)/C=C1\C(=O)Nc3ccc(cc31)-c1cnn(C)c1COCCN(C)C2=O
8. Cc1cc2c([nH]1)/C=C1\C(=O)Nc3ccc(cc31)CN(C)C(=O)COCCNC2=O

["82 % Ctrl", "100 % Ctrl", "45 % Ctrl", "98 % Ctrl", "47 % Ctrl", "35 % Ctrl", "36 % Ctrl", "97 % Ctrl"]

---

- system_tested: kinases (Homo sapiens, UniProt P10721, A829P)
- Construct: purchased Eurofins/DiscoveRx; host or cells: E. coli BL21-derived host (T7 phage display) for most kinases; HEK-293 for the rest
- Sequence (P10721 26-976 A829P): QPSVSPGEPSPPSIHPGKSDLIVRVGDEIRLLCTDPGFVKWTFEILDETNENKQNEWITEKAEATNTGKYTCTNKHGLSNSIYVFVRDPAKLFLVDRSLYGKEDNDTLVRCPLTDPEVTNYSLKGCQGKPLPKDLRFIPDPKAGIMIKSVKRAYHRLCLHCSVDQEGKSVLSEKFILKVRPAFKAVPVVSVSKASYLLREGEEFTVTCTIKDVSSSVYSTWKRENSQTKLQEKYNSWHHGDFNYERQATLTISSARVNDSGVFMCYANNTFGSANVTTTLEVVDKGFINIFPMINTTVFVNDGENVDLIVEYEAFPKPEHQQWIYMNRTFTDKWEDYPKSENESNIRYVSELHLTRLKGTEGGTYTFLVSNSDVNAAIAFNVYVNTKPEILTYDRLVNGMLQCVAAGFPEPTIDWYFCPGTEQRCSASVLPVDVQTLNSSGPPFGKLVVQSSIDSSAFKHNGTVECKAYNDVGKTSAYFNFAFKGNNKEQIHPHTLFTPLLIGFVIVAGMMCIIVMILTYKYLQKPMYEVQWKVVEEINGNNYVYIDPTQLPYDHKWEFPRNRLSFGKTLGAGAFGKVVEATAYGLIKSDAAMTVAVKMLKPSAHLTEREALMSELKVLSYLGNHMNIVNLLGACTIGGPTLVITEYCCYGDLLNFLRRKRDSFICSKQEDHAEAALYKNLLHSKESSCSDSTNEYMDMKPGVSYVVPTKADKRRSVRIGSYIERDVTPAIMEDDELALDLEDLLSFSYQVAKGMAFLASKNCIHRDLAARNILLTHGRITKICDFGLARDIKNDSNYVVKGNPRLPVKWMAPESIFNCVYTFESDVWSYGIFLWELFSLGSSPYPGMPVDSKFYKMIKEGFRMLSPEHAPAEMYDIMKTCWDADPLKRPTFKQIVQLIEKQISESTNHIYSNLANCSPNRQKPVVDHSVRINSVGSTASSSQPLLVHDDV
- test: KINOMEscan kinase binding assay (Eurofins/DiscoveRx), % Ctrl
- study_conditions: 1 μM; KIT(A829P)
Friendly reminder: % Ctrl, KIT(A829P) below 70 % Ctrl is criterion met, at or above is criterion not met.

Record excerpt, results attached:
Cc1cc2c([nH]1)/C=C1\C(=O)Nc3cc(Cl)c(cc31)OCCO[C@@H](C(=O)N(C)C)CN(C)C2=O; criterion not met
Cc1cc2c([nH]1)/C=C1\C(=O)Nc3ccc(cc31)-c1cnn(C)c1CNCCN(C)C2=O; criterion met
Cc1cc2c([nH]1)/C=C1\C(=O)Nc3ccc(cc31)-c1ccnn1CCNCCNC2=O; criterion not met
Cc1cc2c([nH]1)/C=C1\C(=O)Nc3ccc(cc31)OCCOCCNC2=O; criterion not met
Cc1cc2c([nH]1)/C=C1\C(=O)Nc3ccc(cc31)-c1c(C)n[nH]c1CNCCN(C)C2=O; criterion met

Strictly below 70 % Ctrl in % Ctrl, KIT(A829P)? Cc1cc2c([nH]1)/C=C1\C(=O)Nc3ccc(cc31)-c1c(noc1C)COCCN(C)C2=O criterion not met

Lab note: % Ctrl, KIT(A829P) threshold 70 % Ctrl. Does this compound come in strictly under it? Cc1cc2c([nH]1)/C=C1\C(=O)Nc3ccc(cc31)-c1ccnn1CCOCCNC2=O criterion not met

Consider Cc1cc2c([nH]1)/C=C1\C(=O)Nc3cc(Cl)c(cc31)OCCO[C@@H](C(=O)N[C@@H]1CCNC1)CN(C)C2=O . Does its % Ctrl, KIT(A829P) lie strictly below 70 % Ctrl? criterion met

Hello, I'm reviewing records and need to know if % Ctrl, KIT(A829P) of Cc1cc2c([nH]1)/C=C1\C(=O)Nc3cnc(cc31)-c1cnn(C)c1COCCNC2=O is below 70 % Ctrl. Could you check? criterion not met

---

Give measured % Ctrl, FLT1 for each item. Keep answers brief.
- system_tested: kinases (Homo sapiens, UniProt P17948)
- Construct: purchased Eurofins/DiscoveRx; host or cells: E. coli BL21-derived host (T7 phage display) for most kinases; HEK-293 for the rest
- Sequence (P17948 27-1338): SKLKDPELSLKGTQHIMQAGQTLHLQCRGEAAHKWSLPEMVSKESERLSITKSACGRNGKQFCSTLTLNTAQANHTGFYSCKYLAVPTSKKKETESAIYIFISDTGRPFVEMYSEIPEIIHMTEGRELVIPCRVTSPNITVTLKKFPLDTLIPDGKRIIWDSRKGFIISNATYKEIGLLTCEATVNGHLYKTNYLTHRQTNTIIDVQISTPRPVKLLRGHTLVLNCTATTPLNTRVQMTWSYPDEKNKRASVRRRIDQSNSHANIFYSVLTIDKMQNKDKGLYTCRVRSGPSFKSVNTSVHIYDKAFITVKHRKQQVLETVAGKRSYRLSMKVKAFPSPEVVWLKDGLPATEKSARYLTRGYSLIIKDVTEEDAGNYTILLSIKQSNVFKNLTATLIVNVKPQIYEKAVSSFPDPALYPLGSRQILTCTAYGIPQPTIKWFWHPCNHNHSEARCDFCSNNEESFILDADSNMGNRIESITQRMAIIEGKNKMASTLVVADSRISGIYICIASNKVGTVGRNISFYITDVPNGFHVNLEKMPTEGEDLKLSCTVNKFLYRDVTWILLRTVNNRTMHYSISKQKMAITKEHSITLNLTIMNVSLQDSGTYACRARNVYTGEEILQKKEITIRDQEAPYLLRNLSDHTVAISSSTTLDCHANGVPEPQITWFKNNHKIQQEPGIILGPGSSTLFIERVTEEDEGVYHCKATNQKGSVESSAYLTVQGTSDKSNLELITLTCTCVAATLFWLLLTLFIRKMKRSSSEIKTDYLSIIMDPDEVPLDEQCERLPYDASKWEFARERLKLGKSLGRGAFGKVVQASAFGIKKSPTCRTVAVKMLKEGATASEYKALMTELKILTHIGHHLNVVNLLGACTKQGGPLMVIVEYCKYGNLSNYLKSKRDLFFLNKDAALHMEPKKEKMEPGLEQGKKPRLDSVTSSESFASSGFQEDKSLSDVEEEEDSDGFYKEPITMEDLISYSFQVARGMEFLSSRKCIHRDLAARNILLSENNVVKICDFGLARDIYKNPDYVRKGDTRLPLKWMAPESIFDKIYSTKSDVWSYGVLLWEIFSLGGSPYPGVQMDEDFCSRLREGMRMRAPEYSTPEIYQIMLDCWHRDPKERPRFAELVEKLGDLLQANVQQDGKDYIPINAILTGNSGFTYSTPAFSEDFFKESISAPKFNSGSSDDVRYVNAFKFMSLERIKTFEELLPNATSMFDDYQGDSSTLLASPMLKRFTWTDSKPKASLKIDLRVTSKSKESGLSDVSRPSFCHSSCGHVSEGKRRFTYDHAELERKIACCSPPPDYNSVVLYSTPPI
- test: KINOMEscan kinase binding assay (Eurofins/DiscoveRx), % Ctrl
- study_conditions: 1 μM; FLT1
- Procedure: Kinase binding assays were performed at Eurofins/DiscoveRx using the general KINOMEscan Protocol (Fabian, M. A. et al., “A small molecule-kinase interaction map for clinical kinase inhibitors,” Nat. Biotechnol. 2005, 23(3):329-36). For most assays, kinase-tagged T7 phage strains were prepared in an E. coli host derived from the BL21 strain. […] The kinase concentration in the eluates was measured by qPCR. […]
One number for each entry, in % Ctrl.

Solved entries:
CNC(=O)[C@H]1CN(C)C(=O)c2cc(C)[nH]c2/C=C2\C(=O)Nc3cc(Cl)c(cc32)OCCO1; 85
Cc1cc2c([nH]1)/C=C1\C(=O)Nc3cc(Cl)c(cc31)OCCO[C@@H](C(=O)NC1CCNCC1)CN(C)C2=O; 97

Give its % Ctrl, FLT1 value. Item: Cc1cc2c([nH]1)/C=C1\C(=O)Nc3ccc(cc31)-c1ccnn1CCOCCNC2=O 95
